Assayed target: T1, non-activatable Factor X (FXn) (Homo sapiens (Human), UniProt P00742 41-488, single biotin on the C-terminal BioTag)
T1 construct: also called BIIB-FX-015
Experiment: BLI; class meaning: paragraph 285
Parameter: binding result

- Binder: "BIIB-12-913 (antibody, V domains shown, IgG) VH: QVQLVQSGAEVKKPGASVKVSCKASGYTFTSYGISWVRQAPGQGLEWMGWISAYNGNTNYAQKLQGRVTMTTDTSTSTAYMELRSLRSDDTAVYYCARGGVSRFWGQGTLVTVSS VL: EIVMTQSPATLSVSPGERATLSCRASQSVSSNLAWYQQKPGQAPRLLIYGASTRATGIPARFSGSGSGTEFTLTISSLQSEDFAVYYCQQYAPYPPLTFGGGTKVEIK"
  Parameter: "binding result"
  Measured result: "binds"
- Binder: "BIIB-12-1328 (antibody, V domains shown, IgG) VH: QLQLQESGPGLVKPSETLSLTCTVSGGSISSSSYYWGWIRQPPGKGLEWIGSIYYSGSTYYNPSLKSRVTISVDTSKNQFSLKLSSVTAADTAVYYCARDPAYYSGHDYYYYGMDVWGQGTTVTVSS VL: EIVMTQSPATLSVSPGERATLSCRASQSVSSNLAWYQQKPGQAPRLLIYGASTRATGIPARFSGSGSGTEFTLTISSLQSEDFAVYYCQQPNSYPLTFGGGTKVEIK"
  Parameter: "binding result"
  Measured result: "binds"
- Binder: "BIIB-12-904 (antibody, V domains shown, IgG) VH: QVQLVESGGGVVQPGRSLRLSCAASGFTFSSYGMHWVRQAPGKGLEWVAVISYDGSNKYYADSVKGRFTISRDNSKNTLYLQMNSLRAEDTAVYYCARGSGRSGYHYWGQGTLVTVSS VL: EIVMTQSPATLSVSPGERATLSCRASQSVSSNLAWYQQKPGQAPRLLIYGASTRATGIPARFSGSGSGTEFTLTISSLQSEDFAVYYCQQAFNWPPTFGGGTKVEIK"
  Parameter: "binding result"
  Measured result: "binds"
- Binder: "BIIB-12-1312 (antibody, V domains shown, IgG) VH: QVQLVESGGGVVQPGRSLRLSCAASGFTFSSYGMHWVRQAPGKGLEWVAVISYDGSNKYYADSVKGRFTISRDNSKNTLYLQMNSLRAEDTAVYYCAKGMGHWIDYWGQGTLVTVSS VL: DIQMTQSPSSVSASVGDRVTITCRASQGISSWLAWYQQKPGKAPKLLIYAASSLQSGVPSRFSGSGSGTDFTLTISSLQPEDFATYYCQQASSFPPTFGGGTKVEIK"
  Parameter: "binding result"
  Measured result: "binds"

From: patent US20230192896A1
